Recorded values, source patent US20250066286A1.

assayNotes: Solvent mixture solubility tests of (Z)-endoxifen
Type: physicochemical
statedConditions: acetone/tetrahydrofuran 95/5 v/v, organic solvent or mixture, thermodynamic from solid, acetone/tetrahydrofuran 95/5 v/v; 100 mg/mL; high temperature; read-out: Solubility HT (100 mg/mL): Sol. HT
endpointLabel: solubility

I'd like to know its solubility. The compound in question is CC/C(=C(\c1ccc(O)cc1)c1ccc(OCCNC)cc1)c1ccccc1 [(Z)-endoxifen]
< 100 mg/mL

* * *

assayNotes: Stability of (Z)-Endoxifen in acetone (HPLC peak table over time)
Format: physicochemical
statedConditions: acetone, 40° C., T0
endpointLabel: HPLC peak RT 20.80, RRT 1.28 (%)
Form entry: value (%) — number only.

Look up HPLC peak RT 20.80, RRT 1.28: CC/C(=C(\c1ccc(O)cc1)c1ccc(OCCNC)cc1)c1ccccc1 [(Z)-endoxifen]
0.07

* * *

assayNotes: Stability of (Z)-Endoxifen in acetone (HPLC peak table over time)
Format: physicochemical
statedConditions: acetone, 40° C., 4 hr
endpointLabel: HPLC peak RT 3.14, RRT 0.19 (%)
Give just the numeric value; % need not be written.

I'd like to know its HPLC peak RT 3.14, RRT 0.19. The compound in question is CC/C(=C(\c1ccc(O)cc1)c1ccc(OCCNC)cc1)c1ccccc1 [(Z)-endoxifen]
0.15

* * *

assayNotes: Stability of (Z)-Endoxifen in acetone (HPLC peak table over time)
Assay type: physicochemical
statedConditions: acetone at reflux (56° C.), 27 hr
endpointLabel: HPLC peak RT 27.45, RRT 1.81 (%)
Give your result in % as a bare value.

Please report the recorded HPLC peak RT 27.45, RRT 1.81 for CC/C(=C(\c1ccc(O)cc1)c1ccc(OCCNC)cc1)c1ccccc1 [(Z)-endoxifen] .
0.22

* * *

assayNotes: Stability of (Z)-Endoxifen in acetone (HPLC peak table over time)
Type: physicochemical
statedConditions: acetone at reflux (56° C.), T0
endpointLabel: HPLC peak RT 20.51, RRT 1.35 (%)
The answer is to be given in %; state only the numeric part.

For the compound shown here, CC/C(=C(\c1ccc(O)cc1)c1ccc(OCCNC)cc1)c1ccccc1 [(Z)-endoxifen] , give the reported HPLC peak RT 20.51, RRT 1.35.
0.12

* * *

assayNotes: Solubility testing of (Z)-endoxifen in single solvents
Type: physicochemical
statedConditions: methyl isobutyl ketone (4-methyl-2-pentanone), 25 °C, organic solvent or mixture, thermodynamic from solid, solvent methyl isobutyl ketone (4-methyl-2-pentanone); room temperature; read-out: Solubility at RT
endpointLabel: solubility at 15 min (µg/mL)
Quick note: give the figure in µg/mL, leave out the unit.

Which solubility at 15 min reading was recorded for the molecule CC/C(=C(\c1ccc(O)cc1)c1ccc(OCCNC)cc1)c1ccccc1 [(Z)-endoxifen] ?
10000

* * *

assayNotes: Stability of (Z)-Endoxifen in acetone (HPLC peak table over time)
Assay type: physicochemical
statedConditions: acetone at reflux (56° C.), 3 hr
endpointLabel: HPLC peak RT 27.15, RRT 1.79 (%)
Just the number in %, nothing appended.

Value lookup for HPLC peak RT 27.15, RRT 1.79; key = CC/C(=C(\c1ccc(O)cc1)c1ccc(OCCNC)cc1)c1ccccc1 [(Z)-endoxifen]
0.03

* * *

assayNotes: Solvent mixture solubility tests of (Z)-endoxifen
Assay type: physicochemical
statedConditions: heptane/ethyl acetate 50/50 v/v, organic solvent or mixture, thermodynamic from solid, heptane/ethyl acetate 50/50 v/v; 40 mg/mL; high temperature; read-out: Solubility HT (40 mg/mL): Sol. HT
endpointLabel: solubility

Recorded solubility of CC/C(=C(\c1ccc(O)cc1)c1ccc(OCCNC)cc1)c1ccccc1 [(Z)-endoxifen] , please.
< 40 mg/mL

* * *

assayNotes: Solvent mixture solubility tests of (Z)-endoxifen
Format: physicochemical
statedConditions: water/tetrahydrofuran 95/5 v/v, aqueous with cosolvent or surfactant or cyclodextrin, thermodynamic from solid, water/tetrahydrofuran 95/5 v/v; 100 mg/mL; high temperature; read-out: Solubility HT (100 mg/mL): Sol. HT
endpointLabel: solubility

Consider the compound CC/C(=C(\c1ccc(O)cc1)c1ccc(OCCNC)cc1)c1ccccc1 [(Z)-endoxifen] and give its measured solubility.
< 100 mg/mL

* * *

assayNotes: Solubility testing of (Z)-endoxifen in single solvents
Assay type: physicochemical
statedConditions: ethyl acetate, 25 °C, organic solvent or mixture, thermodynamic from solid, ethyl acetate, room temperature; read-out: Solubility
endpointLabel: solubility at 15 min (µg/mL)
Please reply with the bare figure in µg/mL and do not write the unit itself.

// returns reported solubility at 15 min for input CC/C(=C(\c1ccc(O)cc1)c1ccc(OCCNC)cc1)c1ccccc1 [(Z)-endoxifen]
10000

* * *

assayNotes: Stability of (Z)-Endoxifen in acetone (HPLC peak table over time)
Format: physicochemical
statedConditions: acetone at reflux (56° C.), T0
endpointLabel: HPLC peak RT 27.15, RRT 1.79 (%)
Number in %, nothing else.

What HPLC peak RT 27.15, RRT 1.79 value was documented for this compound, CC/C(=C(\c1ccc(O)cc1)c1ccc(OCCNC)cc1)c1ccccc1 [(Z)-endoxifen] ?
0.03

* * *

assayNotes: Stability of (Z)-Endoxifen in acetone (HPLC peak table over time)
Assay type: physicochemical
statedConditions: acetone, 40° C., 20 hr
endpointLabel: HPLC peak RT 21.56, RRT 1.33 (%)
Respond numerically; units are % and should not be typed.

Entry CC/C(=C(\c1ccc(O)cc1)c1ccc(OCCNC)cc1)c1ccccc1 [(Z)-endoxifen] has what HPLC peak RT 21.56, RRT 1.33?
0.08

* * *

assayNotes: Solubility testing of (Z)-endoxifen in single solvents
Assay type: physicochemical
statedConditions: ethanol, 25 °C, organic solvent or mixture, thermodynamic from solid, ethanol, room temperature; read-out: Solubility
endpointLabel: solubility at 15 min
State the result as a value with its unit after it.

Reported solubility at 15 min for CC/C(=C(\c1ccc(O)cc1)c1ccc(OCCNC)cc1)c1ccccc1 [(Z)-endoxifen] : what is it?
10000 µg/mL

* * *

assayNotes: Solvent mixture solubility tests of (Z)-endoxifen
Assay type: physicochemical
statedConditions: water/acetonitrile 50/50 v/v, aqueous with cosolvent or surfactant or cyclodextrin, thermodynamic from solid, water/acetonitrile 50/50 v/v; 40 mg/mL; high temperature; read-out: Solubility HT (40 mg/mL): Sol. HT
endpointLabel: solubility

Form field: reported solubility of CC/C(=C(\c1ccc(O)cc1)c1ccc(OCCNC)cc1)c1ccccc1 [(Z)-endoxifen]
< 40 mg/mL

* * *

assayNotes: Stability of (Z)-Endoxifen in acetone (HPLC peak table over time)
Format: physicochemical
statedConditions: acetone, 40° C., 20 hr
endpointLabel: HPLC peak RT 22.76, RRT 1.40 (%)
# value in %; strip the unit string

Entry CC/C(=C(\c1ccc(O)cc1)c1ccc(OCCNC)cc1)c1ccccc1 [(Z)-endoxifen] : reported HPLC peak RT 22.76, RRT 1.40 = ?
0.01

* * *

assayNotes: Solubility testing of (Z)-endoxifen in single solvents
Type: physicochemical
statedConditions: butyl methyl ether, organic solvent or mixture, thermodynamic from solid, solvent butyl methyl ether; 10 mg/mL; high temperature; read-out: Solubility HT (10 mg/mL): Sol. HT
endpointLabel: solubility

I would be grateful if you could share the reported solubility for CC/C(=C(\c1ccc(O)cc1)c1ccc(OCCNC)cc1)c1ccccc1 [(Z)-endoxifen] .
< 10000 µg/mL

* * *

assayNotes: Stability of (Z)-Endoxifen in acetone (HPLC peak table over time)
Type: physicochemical
statedConditions: acetone at reflux (56° C.), 27 hr
endpointLabel: HPLC peak RT 20.32, RRT 1.34 (%)
// return numeric value only (unit: %, not printed)

Entry CC/C(=C(\c1ccc(O)cc1)c1ccc(OCCNC)cc1)c1ccccc1 [(Z)-endoxifen] : reported HPLC peak RT 20.32, RRT 1.34 = ?
0.09

* * *

assayNotes: Solubility testing of (Z)-endoxifen in single solvents
Assay type: physicochemical
statedConditions: butyl acetate, 25 °C, organic solvent or mixture, thermodynamic from solid, solvent butyl acetate; room temperature; read-out: Solubility at RT
endpointLabel: solubility at 15 min (µg/mL)
Provide only the numeric value, understood in µg/mL.

Entry CC/C(=C(\c1ccc(O)cc1)c1ccc(OCCNC)cc1)c1ccccc1 [(Z)-endoxifen] has what solubility at 15 min?
10000

* * *

assayNotes: Solvent mixture solubility tests of (Z)-endoxifen
Format: physicochemical
statedConditions: heptane/2-propanol (50/50 v/v), organic solvent or mixture, thermodynamic from solid, heptane/2-propanol (50/50 v/v), high temperature; precipitated during cooling; read-out: Solubility
endpointLabel: solubility
Write the figure, then the unit, nothing else.

Can you share its solubility? I mean this molecule: CC/C(=C(\c1ccc(O)cc1)c1ccc(OCCNC)cc1)c1ccccc1 [(Z)-endoxifen]
40 mg/mL

* * *

assayNotes: Solvent mixture solubility tests of (Z)-endoxifen
Type: physicochemical
statedConditions: acetone/ethyl acetate 50/50 v/v, organic solvent or mixture, thermodynamic from solid, acetone/ethyl acetate 50/50 v/v; 40 mg/mL; high temperature; read-out: Solubility HT (40 mg/mL): Sol. HT
endpointLabel: solubility

Item CC/C(=C(\c1ccc(O)cc1)c1ccc(OCCNC)cc1)c1ccccc1 [(Z)-endoxifen] has what recorded solubility?
< 40 mg/mL
